Target or system UniProtKB P08908; recorded quantity IC50.
Sequence (P08908 whole entry): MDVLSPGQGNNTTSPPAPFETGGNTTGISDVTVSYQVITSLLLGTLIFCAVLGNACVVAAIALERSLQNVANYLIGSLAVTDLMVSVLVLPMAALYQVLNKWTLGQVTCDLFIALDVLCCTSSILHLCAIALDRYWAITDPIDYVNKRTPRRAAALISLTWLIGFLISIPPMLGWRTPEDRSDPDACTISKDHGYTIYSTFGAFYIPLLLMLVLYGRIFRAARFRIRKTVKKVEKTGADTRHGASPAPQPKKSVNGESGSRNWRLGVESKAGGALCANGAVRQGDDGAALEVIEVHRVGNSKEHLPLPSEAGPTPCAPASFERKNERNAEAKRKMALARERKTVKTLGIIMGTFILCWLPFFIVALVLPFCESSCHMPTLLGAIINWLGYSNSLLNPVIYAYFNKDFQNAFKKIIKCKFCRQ
Numbers only, in nM.

Consider the following illustrative entries.
compound: NC(=O)c1cccc2c1CC(N(CCCc1c[nH]c3ccc(F)cc13)C1CCC1)CO2 (single isomer, unassigned; (-))
endpoint-label: IC50
readout-value: 66

compound: CCCN(CCCc1c[nH]c2ccc(F)cc12)[C@H]1COc2c(F)ccc(C(=O)NC)c2C1
endpoint-label: IC50
readout-value: 752

compound: CNC(=O)c1ccc(F)c2c1C[C@@H](N(CCCc1c[nH]c3ccc(F)cc13)C1CCC1)CO2
endpoint-label: IC50
readout-value: 262

Moving on to the next compound.
q: Return IC50 for the following compound: N#Cc1ccc2[nH]cc(CCCN(C3CCC3)C3COc4c(F)ccc(C(N)=O)c4C3)c2c1 (single isomer, unassigned; (-))
a: 195
